These entries and their values trace back to the supplement of paper PMC5998384.

# Tested on: HeLa Kyoto
# Protocol details: solubility change mitosis vs G1/S (difference of NP-40 vs SDS log2 ratios) (log2 ratio difference); higher = more soluble in mitosis
Recorded metric: solubility change mitosis (log2)
One number for each entry.

Incoming: For MAEQLSPGKAVDQVCTFLFKKPGRKGAAGRRKRPACDPEPGESGSSSDEGCTVVRPEKKRVTHNPMIQKTRDSGKQKAAYGDLSSEEEEENEPESLGVVYKSTRSAKPVGPEDMGATAVYELDTEKERDAQAIFERSQKIQEELRGKEDDKIYRGINNYQKYMKPKDTSMGNASSGMVRKGPIRAPEHLRATVRWDYQPDICKDYKETGFCGFGDSCKFLHDRSDYKHGWQIERELDEGRYGVYEDENYEVGSDDEEIPFKCFICRQSFQNPVVTKCRHYFCESCALQHFRTTPRCYVCDQQTNGVFNPAKELIAKLEKHRATGEGGASDLPEDPDEDAIPIT [RNF113A] , what is its reported solubility change mitosis (log2)?
Outgoing: 0.0489

====

# Tested on: HeLa Kyoto
# Protocol details: solubility in G1/S (NP-40 vs SDS abundance) (log2 ratio); higher = more soluble
# Setup conditions: cell cycle stage: G1/S
Recorded metric: solubility in G1/S (log2)
Give bare numbers.

[
  {
    "Macromolecule sequence": "MQDPNADTEWNDILRKKGILPPKESLKELEEEAEEEQRILQQSVVKTYEDMTLEELEDHEDEFNEEDERAIEMYRRRRLAEWKATKLKNKFGEVLEISGKDYVQEVTKAGEGLWVILHLYKQGIPLCALINQHLSGLARKFPDVKFIKAISTTCIPNYPDRNLPTIFVYLEGDIKAQFIGPLVFGGMNLTRDELEWKLSESGAIMTDLEENPKKPIEDVLLSSVRRSVLMKRDSDSEGD [PDCL3]",
    "Target system": "HeLa Kyoto",
    "Recorded metric": "solubility in G1/S (log2)",
    "Obs value": 0.617
  },
  {
    "Macromolecule sequence": "MKIKDAKKPSFPWFGMDIGGTLVKLSYFEPIDITAEEEQEEVESLKSIRKYLTSNVAYGSTGIRDVHLELKDLTLFGRRGNLHFIRFPTQDLPTFIQMGRDKNFSTLQTVLCATGGGAYKFEKDFRTIGNLHLHKLDELDCLVKGLLYIDSVSFNGQAECYYFANASEPERCQKMPFNLDDPYPLLVVNIGSGVSILAVHSKDNYKRVTGTSLGGGTFLGLCSLLTGCESFEEALEMASKGDSTQADKLVRDIYGGDYERFGLPGWAVASSFGNMIYKEKRESVSKEDLARATLVTITNNIGSVARMCAVNEKINRVVFVGNFLRVNTLSMKLLAYALDYWSKGQLKALFLEHEGYFGAVGALLGLPNFS [PANK3]",
    "Target system": "HeLa Kyoto",
    "Recorded metric": "solubility in G1/S (log2)",
    "Obs value": -0.124
  },
  {
    "Macromolecule sequence": "MAAAPQAPGRGSLRKTRPLVVKTSLNNPYIIRWSALESEDMHFILQTLEDRLKAIGLQKIEDKKKKNKTPFLKKESREKCSIAVDISENLKEKKTDAKQQVSGWTPAHVRKQLAIGVNEVTRALERRELLLVLVCKSVKPAMITSHLIQLSLSRSVPACQVPRLSERIAPVIGLKCVLALAFKKNTTDFVDEVRAIIPRVPSLSVPWLQDRIEDSGENLETEPLESQDRELLDTSFEDLSKPKRKLADGRQASVTLQPLKIKKLIPNPNKIRKPPKSKKATPK [RPP38]",
    "Target system": "HeLa Kyoto",
    "Recorded metric": "solubility in G1/S (log2)",
    "Obs value": 0.342
  }
]

Respectfully, I request solubility in G1/S (log2) for each entry included below.
1. MEALILEPSLYTVKAILILDNDGDRLFAKYYDDTYPSVKEQKAFEKNIFNKTHRTDSEIALLEGLTVVYKSSIDLYFYVIGSSYENELMLMAVLNCLFDSLSQMLRKNVEKRALLENMEGLFLAVDEIVDGGVILESDPQQVVHRVALRGEDVPLTEQTVSQVLQSAKEQIKWSLLR [COPZ1]
2. MFSFNMFDHPIPRVFQNRFSTQYRCFSVSMLAGPNDRSDVEKGGKIIMPPSALDQLSRLNITYPMLFKLTNKNSDRMTHCGVLEFVADEGICYLPHWMMQNLLLEEGGLVQVESVNLQVATYSKFQPQSPDFLDITNPKAVLENALRNFACLTTGDVIAINYNEKIYELRVMETKPDKAVSIIECDMNVDFDAPLGYKEPERQVQHEESTEGEADHSGYAGELGFRAFSGSGNRLDGKKKGVEPSPSPIKPGDIKRGIPNYEFKLGKITFIRNSRPLVKKVEEDEAGGRFVAFSGEGQSLRKKGRKP [UFD1L]
3. MVGRNSAIAAGVCGALFIGYCIYFDRKRRSDPNFKNRLRERRKKQKLAKERAGLSKLPDLKDAEAVQKFFLEEIQLGEELLAQGEYEKGVDHLTNAIAVCGQPQQLLQVLQQTLPPPVFQMLLTKLPTISQRIVSAQSLAEDDVE [TOMM20]
4. MDGLLNPRESSKFIAENSRDVFIDSGGVRRVAELLLAKAAGPELRVEGWKALHELNPRAADEAAVNWVFVTDTLNFSFWSEQDEHKCVVRYRGKTYSGYWSLCAAVNRALDEGIPITSASYYATVTLDQVRNILRSDTDVSMPLVEERHRILNETGKILLEKFGGSFLNCVRESENSAQKLMHLVVESFPSYRDVTLFEGKRVSFYKRAQILVADTWSVLEGKGDGCFKDISSITMFADYRLPQVLAHLGALKYSDDLLKKLLKGEMLSYGDRQEVEIRGCSLWCVELIRDCLLELIEQKGEKPNGEINSILLDYYLWDYAHDHREDMKGIPFHRIRCIYY [C9ORF64]
5. MKLGRAVLGLLLLAPSVVQAVEPISLGLALAGVLTGYIYPRLYCLFAECCGQKRSLSREALQKDLDDNLFGQHLAKKIILNAVFGFINNPKPKKPLTLSLHGWTGTGKNFVSKIIAENIYEGGLNSDYVHLFVATLHFPHASNITLYKDQLQLWIRGNVSACARSIFIFDEMDKMHAGLIDAIKPFLDYYDLVDGVSYQKAMFIFLSNAGAERITDVALDFWRSGKQREDIKLKDIEHALSVSVFNNKNSGFWHSSLIDRNLIDYFVPFLPLEYKHLKMCIRVEMQSRGYEIDEDIVSRVAEEMTFFPKEERVFSDKGCKTVFTKLDYYYDD [TOR1A]
6. MAAVSVYAPPVGGFSFDNCRRNAVLEADFAKRGYKLPKVRKTGTTIAGVVYKDGIVLGADTRATEGMVVADKNCSKIHFISPNIYCCGAGTAADTDMTTQLISSNLELHSLSTGRLPRVVTANRMLKQMLFRYQGYIGAALVLGGVDVTGPHLYSIYPHGSTDKLPYVTMGSGSLAAMAVFEDKFRPDMEEEEAKNLVSEAIAAGIFNDLGSGSNIDLCVISKNKLDFLRPYTVPNKKGTRLGRYRCEKGTTAVLTEKITPLEIEVLEETVQTMDTS [PSMB7]

Outgoing:
1. 0.235
2. 0.0333
3. 0.747
4. -0.318
5. 0.000474
6. 0.376

Respectfully, I request solubility in G1/S (log2) for each entry included below.
1. MAPSLWKGLVGIGLFALAHAAFSAAQHRSYMRLTEKEDESLPIDIVLQTLLAFAVTCYGIVHIAGEFKDMDATSELKNKTFDTLRNHPSFYVFNHRGRVLFRPSDTANSSNQDALSSNTSLKLRKLESLRR [MMGT1]
2. MNNLNDPPNWNIRPNSRADGGDGSRWNYALLVPMLGLAAFRWIWSRESQKEVEKEREAYRRRTAAFQQDLEAKYHAMISENRRAVAQLSLELEKEQNRTASYREALISQGRKLVEEKKLLEQERAQVMQEKRQVQPLRSAYLSCLQREENWQRRARLLLKEFEAVLTERQNIYCSLFLPRSKRLEIEKSLLVRASVDPVAADLEMAAGLTDIFQHDTYCGDVWNTNKRQNGRLMWLYLKYWELVVELKKFKRVEEAILEK [CCDC127]

Outgoing:
1: -0.125; 2: 0.0789
